SYSTEM: T1, human PCSK9 (human, UniProt Q8NBP7 31-692)
T1 construct: also called hPCSK9; huPCSK9
ASSAY METHOD TEXT: PCSK9:LDLR FRET, competition
EXPERIMENTAL ENDPOINT: pIC50
Numbers only, as −log10 of the molar value.

BINDER	pIC50
PCSK9-PKE2 tandem 4472_H11 (designed binder, not shown: small tags and cut ends, The two parts are one polypeptide in the real molecule, joined by the undisclosed linker P (a code, not a proline); they are given here as separate chains.) PCSK9 10Fn3: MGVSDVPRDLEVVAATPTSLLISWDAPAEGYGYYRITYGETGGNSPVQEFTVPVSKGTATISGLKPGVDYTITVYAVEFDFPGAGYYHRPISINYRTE PKE2 10Fn3: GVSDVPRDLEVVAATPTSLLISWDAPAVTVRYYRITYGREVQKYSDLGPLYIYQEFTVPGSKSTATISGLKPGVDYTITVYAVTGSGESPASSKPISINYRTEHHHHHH	8.89

I'm hoping you can list pIC50 for every binder here, please.
1. PCSK9-PKE2 tandem 4472_B05 (designed binder, not shown: small tags and cut ends, The two parts are one polypeptide in the real molecule, joined by the undisclosed linker O; they are given here as separate chains.) PCSK9 10Fn3: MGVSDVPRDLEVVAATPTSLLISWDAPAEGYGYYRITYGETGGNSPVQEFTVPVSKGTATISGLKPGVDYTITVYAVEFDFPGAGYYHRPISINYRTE PKE2 10Fn3: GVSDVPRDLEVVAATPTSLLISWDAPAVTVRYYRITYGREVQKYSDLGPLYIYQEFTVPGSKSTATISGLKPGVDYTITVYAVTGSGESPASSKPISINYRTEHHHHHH
2. PCSK9-PKE2 tandem 4472_C08 (designed binder, The real molecule is ONE polypeptide: PCSK9 domain, undisclosed linker 'E' (a code letter, not the residue), PKE2 domain. It is given here as two chains because the linker letters are unknown., not shown: The inter-domain linker) PCSK9 domain: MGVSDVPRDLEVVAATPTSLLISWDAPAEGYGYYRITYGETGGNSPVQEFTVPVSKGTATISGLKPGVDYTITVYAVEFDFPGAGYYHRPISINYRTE PKE2 domain: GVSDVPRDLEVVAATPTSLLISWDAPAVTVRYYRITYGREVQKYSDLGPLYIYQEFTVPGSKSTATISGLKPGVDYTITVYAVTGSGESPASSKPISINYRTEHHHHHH

1. 8.72
2. 8.72
